Tested on: HeLa
Experiment: Primary qHTS to identify gynecologic anti-cancer compounds using libraries of approved drugs and bioactive compounds (AID 1345084); also: nearly all actives have a fitted effect of over 55% in size
Conditions: Gynecologic cancer cell panel viability, ATPlite luminescence, 48 h; series mostly up to 57.5 µM
Results filed as inconclusive are left out. Calls of active or inactive are those of the source. Calls follow the shape of the dose curve; as a rule, active = well fitted cell-killing curve with a large enough effect; inconclusive = small, poorly fitted or top-dose-only effect, or effect the other way; inactive = flat fitted curve, though single readings scatter.
Classes used: t = active, f = inactive

{"columns": ["molecule", "cat"],
 "data": [
  ["CN(C)Cc1ccc(-c2nc3cccc4c3n2CCNC4=O)cc1", "f"],
  ["Cc1c(NC(=O)c2ccc(C(C)(C)C)cc2)cccc1-c1cn(C)c(=O)c(Nc2ccc(C(=O)N3CCOCC3)cc2)n1", "f"],
  ["C[N+](C)(C)CC(=O)O", "f"],
  ["CC/C(=C(\\c1ccccc1)c1ccc(OCCN(C)C)cc1)c1ccccc1", "f"],
  ["CCOc1ccc(Nc2nc(-c3c(C)nc4ccccn34)cs2)cc1", "t"],
  ["COc1ccc2cccc(CCNC(C)=O)c2c1", "f"],
  ["CC(C)NCC(O)COc1cccc2[nH]ccc12 (configuration not stated)", "f"],
  ["Cc1ccn(-c2ccc(-c3ncco3)cc2)c(=O)c1-c1ccc2nc(N)ncc2c1", "f"],
  ["CC(=O)N[C@@H](CS)C(=O)O", "f"],
  ["CNC(=O)c1ccc2cc(C3(O)CCn4cncc43)ccc2c1 (configuration not stated)", "f"],
  ["CC(=O)CCCCn1c(=O)c2c(ncn2C)n(C)c1=O", "f"],
  ["CCOC(=O)C1=C(N)Oc2ccc(Br)cc2C1C(C#N)C(=O)OCC (configuration not stated)", "f"],
  ["Clc1ccc(Cn2c(CN3CCCC3)nc3ccccc32)cc1", "f"],
  ["CC(C)OC(=O)C(C)(C)Oc1ccc(C(=O)c2ccc(Cl)cc2)cc1", "f"],
  ["O=C1NCC2(CCN(CCc3ccccc3)CC2)O1", "f"],
  ["COc1cc2ncnc(-n3nc(-c4ccccn4)nc3N)c2cc1OC", "f"],
  ["CCN1CCC[C@H]1CNC(=O)c1cc(S(N)(=O)=O)ccc1OC", "f"],
  ["CC(C)(C)OC(=O)N[C@H]1CCCCCC=C[C@@H]2C[C@@]2(C(=O)NS(=O)(=O)C2CC2)NC(=O)[C@@H]2C[C@@H](OC(=O)N3Cc4cccc(F)c4C3)CN2C1=O", "f"],
  ["COCCOc1nc(-c2ccc(Cl)c(Cl)c2)n(-c2ccc(NC(=O)CCl)cc2)n1", "f"],
  ["O=C(CCN1CCN(C(=O)OCc2cc(Cl)cc(Cl)c2)CC1)c1ccc2[nH]c(=O)oc2c1", "f"],
  ["O=c1[nH]cnc2c1ncn2[C@H]1CC[C@@H](CO)O1", "f"],
  ["Cc1nc(N)sc1-c1ccnc(Nc2ccc(N3CCOCC3)cc2)n1", "t"]
]}

The measured values listed here are drawn from PubChem BioAssay (NCATS).
